- Test Name: in vitro
- Setup Conditions: both, human, microsomes, 1 h, 1 μM
For each entry below, report its % Remaining of Initial, 60 min value.
Answers are plain numbers, in %.

A selection of reference data follows.
Molecule	% Remaining of Initial, 60 min / %
CCCCC/C=C\C/C=C\CCCCCCCC(=O)OCCNC(=O)CCCCCCCCCCCCCCC [Compound I-6]	68
CCCCCCCCCCCCCCCC(=O)NCCOC(=O)CCC(=O)OCC(COC(=O)CCCCCCC)OC(=O)CCCCCCC (stereo not shown) [Compound I-3, PEA-Succinate-Glycerol-Di-Caprylic]	53

Please report the measured % Remaining of Initial, 60 min for CC/C=C\C/C=C\C/C=C\C/C=C\C/C=C\CCCC(=O)OCCNC(=O)CCCCCCCCCCCCCCC [Compound I-5]
62
